Tested on: Mus musculus
Assay: Antidepressant activity against dark-induced depression in Albino Swiss mouse assessed as increase in brain serotonin level at 15 mg/kg, ip once daily for 4 days and 30 mins before test on day 5
Assay type: functional, organism-based
Set-up: dose 15 mg/kg
Active and inactive are the calls of the source. No cut-off for these calls is given here.
Hi! Could you answer with just one of these? active, inactive

Prompt line: Recorded test outcome, item Cc1ccc(N2C(=O)[C@@H]3[C@H]([C@H]4C(=O)N(C5CCCCC5)[C@H]4c4ccc(Cl)cc4)C=CC[C@@H]3C2=O)cc1
Response line: inactive

Prompt line: Recorded test outcome, item COc1ccc([C@@H]2[C@@H]([C@@H]3C=CC[C@@H]4C(=O)N(c5ccccc5)C(=O)[C@H]34)C(=O)N2c2ccccc2)cc1
Response line: active

Prompt line: Recorded test outcome, item O=C1OC(=O)[C@H]2CC=C[C@@H]([C@H]3C(=O)N(c4ccccc4)[C@@H]3c3ccccc3)[C@@H]12
Response line: active

Prompt line: Recorded test outcome, item O=C1C=CC(=O)[C@H]2CC=C[C@@H]([C@H]3C(=O)N(C4CCCCC4)[C@H]3c3ccccc3)[C@@H]12
Response line: active
